Where these numbers come from: patent US9446039B2

# Tested Target: MTH1 (Homo sapiens)
# Experiment Summary: Isothermal titration calorimetry (direct binding assay)
# Measurement Conditions: 15° C., 50 mM Tris-HCl pH 7.8, 150 mM NaCl; error of nonlinear least squares fit
Reported Endpoint: Kd (nM)
Numbers only, in nM.

In plain terms, `COc1ccc2nc3c(c(C)nn3C)c(NCCOCCO)c2c1` has a documented Kd of 49
